Just for reference, PubChem BioAssay is where these values come from.

test: CREB reporter modulators without forskolin, primary screen, cell-based, PC12, CRE-LacZ reporter, unstimulated (AID 1145); conditions: no forskolin, luminescence, 4.5 h, called active from +8 up or from −8 down
Activity calls are given as the source filed them.
// allowed return values: Yes for active, No for inactive

Use the examples below as a reference point.
[
  {
    "Molecule": "NC(=O)N1C(=O)C2C(C1=O)C1C=C(CCCO)C2C(c2cccs2)N1Cc1cccc(OC(F)(F)F)c1 (centres undefined)",
    "Discrete label": "No"
  },
  {
    "Molecule": "O=C1N(Cc2ccccc2)c2ccccc2[C@@H]2OC(c3ccc(OCCCO)cc3)=N[C@]12Cc1ccccc1",
    "Discrete label": "No"
  },
  {
    "Molecule": "O=C1C2C=CC(C(O)c3ccc(F)cc3)N(n3cnnc3)C2C(=O)N1Cc1ccccc1 (centres undefined)",
    "Discrete label": "No"
  },
  {
    "Molecule": "NCCCCCNC(=O)[C@@H]1C[C@@H]2C(=O)NCC(=O)N2[C@@H]1c1cccc(OCCO)c1",
    "Discrete label": "No"
  }
]

# fetch the recorded call for "C=CCN1Cc2ccccc2[C@H]2OC(c3ccc(OCCCO)cc3)=N[C@@]2(CC=C)C1=O" here
No

# fetch the recorded call for "C=C[C@@H](COC(C)=O)N(C(=O)OC(C)(C)C)S(=O)(=O)c1ccc(Br)cc1" here
No

# fetch the recorded call for "NCCCCCCNC(=O)[C@@H]1C[C@@H]2C(=O)N[C@@H](CCCCN)C(=O)N2[C@@H]1c1cccc(OCCO)c1" here
No

# fetch the recorded call for "CCOC(=O)c1ccc(NC(=O)O[C@H]2[C@H](OC(=O)Nc3ccc4c(c3)OCO4)[C@@H](OC(=O)Nc3ccc4c(c3)OCO4)[C@@H](OC)O[C@@H]2CO)cc1" here
No

# fetch the recorded call for "CCOC(=O)C[C@H]1[C@H](OC(=O)c2cc3ccccc3oc2=O)[C@@H](NC(=O)Cc2ccc(OC)cc2)c2cc(OCCCO)ccc2N1C(=O)c1ccc2ccccc2n1" here
Yes

# fetch the recorded call for CN(C)c1ccc(C(O)C2C=CC3C(=O)N(c4ccccc4)C(=O)C3N2Nc2ccc([N+](=O)[O-])cc2)cc1 (centres undefined) here
No

# fetch the recorded call for "COC(=O)[C@@]1(Cc2ccc(OC)cc2)[C@H]2c3cc(C(=O)N(C)C)n(CCO)c3C[C@H]2CN1C(=O)c1ccccc1" here
No

# fetch the recorded call for "COC(=O)[C@@]1(Cc2ccc(OC)cc2)[C@H]2c3cc(C(=O)N(C)C)n(Cc4ccc(Cl)c(C(F)(F)F)c4)c3C[C@H]2CN1C(=O)c1ccccc1" here
No

# fetch the recorded call for "COCCOC(=O)N1C(=O)[C@@]2(c3cc(C#CCC(C(=O)OC)C(=O)OC)ccc31)[C@H](C(=O)N1CCc3cc(OC)c(OC)cc3C1)[C@H]1C(=O)O[C@H](c3ccccc3)[C@H](c3ccccc3)N1[C@@H]2c1ccc(OCCO)cc1" here
No

# fetch the recorded call for "COc1ccc([Si](C)(C)[C@@H]2[C@@H](CC(=O)N(CCO)Cc3ccccc3)O[C@]3(C(=O)N(c4ccccc4)c4ccccc43)[C@H]2C)cc1" here
No
